Target: Neuropeptide Y receptor type 4 (Homo sapiens)
Assay notes: Effect on peptide YY-mediated displacement of 125I-pancreatic polypeptide from human C-terminal eYFP-tagged NY4 receptor expressed in HEK293 cell membranes assessed as peptide YY pKi at 30 uM after 5 hrs by scintillation counting (Rvb = 8 +/- 0.2 No_unit)
Measure: Ki
Number first, unit second.

Give the reported value of Ki for this record: CC(C)(C)c1ccc(OC2CCCCC2O)cc1 (stereo unspecified)
6.3 nM

* * *

Target: Neuropeptide Y receptor type 4 (Homo sapiens, UniProt P50391)
Sequence (P50391 whole entry C240R): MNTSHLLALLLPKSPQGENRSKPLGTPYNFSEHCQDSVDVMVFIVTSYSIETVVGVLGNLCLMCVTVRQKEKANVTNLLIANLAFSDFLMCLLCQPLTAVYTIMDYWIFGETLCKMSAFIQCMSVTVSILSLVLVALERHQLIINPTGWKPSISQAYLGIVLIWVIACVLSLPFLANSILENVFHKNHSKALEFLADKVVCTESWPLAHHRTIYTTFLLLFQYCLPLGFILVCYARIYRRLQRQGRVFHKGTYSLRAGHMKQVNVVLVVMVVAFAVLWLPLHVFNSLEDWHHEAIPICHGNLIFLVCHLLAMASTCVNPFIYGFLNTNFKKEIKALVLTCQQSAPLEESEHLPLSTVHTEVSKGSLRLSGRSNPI
Assay notes: ASSAY_NAME: ChEMBL_1668991 (CHEMBL4018879) DESCRIPTION: Positive allosteric modulation of human NY4 receptor expressed in African green monkey COS7 cells co-expressing delta6Galphaqi4-myr assessed as potentiation of pancreatic polypeptide induced-calcium flux by measuring pancreatic polypeptide EC50 at 30 uM treated at 20 secs post baseline detection followed by addition of pancreatic polypeptide …
Measure: EC50 (nM)
Reply with just the number (in nM).

Retrieve EC50 measured for CC(C)(C)c1ccc(OC2CCCCC2O)cc1 (stereo unspecified) and print it.
0.03
